Listed compounds paired with reported TGI
System: RXF 393 renal
ASSAY_INFO: NCI tumour cell line growth inhibition, 48 h
REPORTED_ENDPOINT: TGI

1) Cc1cc2c(c(S(=O)(=O)c3ccc(Cl)cc3[N+](=O)[O-])c1)NCCC2: > 100 µM
2) O=C1C=CC(O)(C#CCO)C=C1: 10.8 µM
3) CN(CCCN=C=S)CCCN1c2ccccc2CCc2ccccc21: 3.39 µM
4) Nc1cccc2nnccc12: > 100 µM
5) O=C(/C=C/c1ccc2ccccc2c1)NCc1ccc(C(=O)NCc2ccccc2)cc1: > 100 µM
6) O=C(Nc1ccc(Cl)cc1)c1cc2c(cc1Cl)SC(NNCCO)=NS2(=O)=O: > 100 µM
